Hey, just so you know, these numbers are from ChEMBL document CHEMBL5055633.

Recorded MIC by entry
- System: Staphylococcus aureus
- ASSAY PROCEDURE: Antimicrobial activity against extended spectrum-lactamase-carbapenemas producing Staphylococcus aureus strain WIS assessed as reduction in bacterial growth incubated for 48 hrs by microdilution method
- Type: functional
Give your result in µg/mL as a bare value.

Incoming: Indicate the recorded MIC value for this compound: "CC(C)(C)c1ccc(CC2(Cc3ccc(C(C)(C)C)cc3)C(=O)N(CCCCN)C(=O)N(CCCCN)C2=O)cc1.O=C(O)C(F)(F)F.O=C(O)C(F)(F)F"
Outgoing: 8

Incoming: Indicate the recorded MIC value for this compound: "NCCCCN1C(=O)N(CCCCN)C(=O)C(Cc2ccc(F)c3ccccc23)(Cc2ccc(F)c3ccccc23)C1=O.O=C(O)C(F)(F)F.O=C(O)C(F)(F)F"
Outgoing: 8

Incoming: Indicate the recorded MIC value for this compound: "NCCCCN1C(=O)N(CCCCN)C(=O)C(Cc2cc(Br)cc(Br)c2)(Cc2cc(Br)cc(Br)c2)C1=O.O=C(O)C(F)(F)F.O=C(O)C(F)(F)F"
Outgoing: 4

Incoming: Indicate the recorded MIC value for this compound: "NCCCCN1C(=O)N(CCCCN)C(=O)C(Cc2ccc3ccccc3c2)(Cc2ccc3ccccc3c2)C1=O.O=C(O)C(F)(F)F.O=C(O)C(F)(F)F"
Outgoing: 8

Incoming: Indicate the recorded MIC value for this compound: "N=C(N)NCCCCN1C(=O)N(CCCCNC(=N)N)C(=O)C(Cc2cc(Br)cc(Br)c2)(Cc2cc(Br)cc(Br)c2)C1=O.O=C(O)C(F)(F)F.O=C(O)C(F)(F)F"
Outgoing: 2

Incoming: Indicate the recorded MIC value for this compound: "NCCCCN1C(=O)N(CCCCN)C(=O)C(Cc2cc(C(F)(F)F)cc(C(F)(F)F)c2)(Cc2cc(C(F)(F)F)cc(C(F)(F)F)c2)C1=O.O=C(O)C(F)(F)F.O=C(O)C(F)(F)F"
Outgoing: 16

Incoming: Indicate the recorded MIC value for this compound: "N=C(N)NCCCCN1C(=O)N(CCCCNC(=N)N)C(=O)C(Cc2ccc(F)c3ccccc23)(Cc2ccc(F)c3ccccc23)C1=O.O=C(O)C(F)(F)F.O=C(O)C(F)(F)F"
Outgoing: 2

Incoming: Indicate the recorded MIC value for this compound: "N=C(N)NCCCCN1C(=O)N(CCCCNC(=N)N)C(=O)C(Cc2ccc3ccccc3c2)(Cc2ccc3ccccc3c2)C1=O.O=C(O)C(F)(F)F.O=C(O)C(F)(F)F"
Outgoing: 8

Incoming: Indicate the recorded MIC value for this compound: "N=C(N)NCCCCN1C(=O)N(CCCCNC(=N)N)C(=O)C(Cc2ccc(Br)c(Cl)c2)(Cc2ccc(Br)c(Cl)c2)C1=O.O=C(O)C(F)(F)F.O=C(O)C(F)(F)F"
Outgoing: 2

Incoming: Indicate the recorded MIC value for this compound: "CC(C)(C)c1ccc(CC2(Cc3ccc(C(C)(C)C)cc3)C(=O)N(CCCCNC(=N)N)C(=O)N(CCCCNC(=N)N)C2=O)cc1.O=C(O)C(F)(F)F.O=C(O)C(F)(F)F"
Outgoing: 2

Incoming: Indicate the recorded MIC value for this compound: "CC(C)(C)c1cc(CC2(Cc3cc(C(C)(C)C)cc(C(C)(C)C)c3)C(=O)N(CCCCNC(=N)N)C(=O)N(CCCCNC(=N)N)C2=O)cc(C(C)(C)C)c1.O=C(O)C(F)(F)F.O=C(O)C(F)(F)F"
Outgoing: 2

Incoming: Indicate the recorded MIC value for this compound: "N=C(N)NCCCCN1C(=O)N(CCCCNC(=N)N)C(=O)C(Cc2cc(C(F)(F)F)cc(C(F)(F)F)c2)(Cc2cc(C(F)(F)F)cc(C(F)(F)F)c2)C1=O.O=C(O)C(F)(F)F.O=C(O)C(F)(F)F"
Outgoing: 2

Incoming: Indicate the recorded MIC value for this compound: "NCCCCN1C(=O)N(CCCCN)C(=O)C(Cc2ccc(Br)c(Cl)c2)(Cc2ccc(Br)c(Cl)c2)C1=O.O=C(O)C(F)(F)F.O=C(O)C(F)(F)F"
Outgoing: 8

Incoming: Indicate the recorded MIC value for this compound: "N=C(N)NCCCCN1C(=O)N(CCCCNC(=N)N)C(=O)C(Cc2ccc(C(F)(F)F)cc2)(Cc2ccc(C(F)(F)F)cc2)C1=O.O=C(O)C(F)(F)F.O=C(O)C(F)(F)F"
Outgoing: 4

Incoming: Indicate the recorded MIC value for this compound: "CC(C)(C)c1cc(CC2(Cc3cc(C(C)(C)C)cc(C(C)(C)C)c3)C(=O)N(CCCCN)C(=O)N(CCCCN)C2=O)cc(C(C)(C)C)c1.O=C(O)C(F)(F)F.O=C(O)C(F)(F)F"
Outgoing: 2

====

Recorded MIC by entry
- Tested on: Escherichia coli
- ASSAY PROCEDURE: Antimicrobial activity against verona integron-encoded metallo-beta-lactamase-29-producing Escherichia coli 50639799 assessed as reduction in bacterial growth incubated for 48 hrs by microdilution method
- Type: functional
Give your result in µg/mL as a bare value.

Known MIC results, listed for orientation:
INSERT INTO results (smi, observed_measurement) VALUES
  ('CC(C)(C)c1ccc(CC2(Cc3ccc(C(C)(C)C)cc3)C(=O)N(CCCCNC(=N)N)C(=O)N(CCCCNC(=N)N)C2=O)cc1.O=C(O)C(F)(F)F.O=C(O)C(F)(F)F', 4),
  ('N=C(N)NCCCCN1C(=O)N(CCCCNC(=N)N)C(=O)C(Cc2ccc(F)c3ccccc23)(Cc2ccc(F)c3ccccc23)C1=O.O=C(O)C(F)(F)F.O=C(O)C(F)(F)F', 4),
  ('N=C(N)NCCCCN1C(=O)N(CCCCNC(=N)N)C(=O)C(Cc2cc(C(F)(F)F)cc(C(F)(F)F)c2)(Cc2cc(C(F)(F)F)cc(C(F)(F)F)c2)C1=O.O=C(O)C(F)(F)F.O=C(O)C(F)(F)F', 4),
  ('N=C(N)NCCCCN1C(=O)N(CCCCNC(=N)N)C(=O)C(Cc2ccc3ccccc3c2)(Cc2ccc3ccccc3c2)C1=O.O=C(O)C(F)(F)F.O=C(O)C(F)(F)F', 8),
  ('CC(C)(C)c1cc(CC2(Cc3cc(C(C)(C)C)cc(C(C)(C)C)c3)C(=O)N(CCCCN)C(=O)N(CCCCN)C2=O)cc(C(C)(C)C)c1.O=C(O)C(F)(F)F.O=C(O)C(F)(F)F', 4),
  ('CC(C)(C)c1ccc(CC2(Cc3ccc(C(C)(C)C)cc3)C(=O)N(CCCCN)C(=O)N(CCCCN)C2=O)cc1.O=C(O)C(F)(F)F.O=C(O)C(F)(F)F', 8);

Next:
Incoming: Indicate the recorded MIC value for this compound: "N=C(N)NCCCCN1C(=O)N(CCCCNC(=N)N)C(=O)C(Cc2cc(Br)cc(Br)c2)(Cc2cc(Br)cc(Br)c2)C1=O.O=C(O)C(F)(F)F.O=C(O)C(F)(F)F"
Outgoing: 4

====

- Tested on: Enterococcus faecium
- ASSAY PROCEDURE: Antimicrobial activity against extended spectrum-lactamase-carbapenemas producing Enterococcus faecium strain 50901530 assessed as reduction in bacterial growth incubated for 48 hrs by microdilution method
- Type: functional
QUANTITY NAME: MIC (µg/mL)
Give your result in µg/mL as a bare value.

Known MIC results, listed for orientation:
INSERT INTO results (smi, experimental_target, u, observed_measurement) VALUES
  ('NCCCCN1C(=O)N(CCCCN)C(=O)C(Cc2ccc(Br)c(Cl)c2)(Cc2ccc(Br)c(Cl)c2)C1=O.O=C(O)C(F)(F)F.O=C(O)C(F)(F)F', 'Enterococcus faecium', 'µg/mL', 8),
  ('CC(C)(C)c1ccc(CC2(Cc3ccc(C(C)(C)C)cc3)C(=O)N(CCCCNC(=N)N)C(=O)N(CCCCNC(=N)N)C2=O)cc1.O=C(O)C(F)(F)F.O=C(O)C(F)(F)F', 'Enterococcus faecium', 'µg/mL', 4);

Incoming: Indicate the recorded MIC value for this compound: "NCCCCN1C(=O)N(CCCCN)C(=O)C(Cc2ccc3ccccc3c2)(Cc2ccc3ccccc3c2)C1=O.O=C(O)C(F)(F)F.O=C(O)C(F)(F)F"
Outgoing: 8

====

Recorded MIC by entry
- Test system: Acinetobacter baumannii
- ASSAY PROCEDURE: Antimicrobial activity against oxacillinase-23 producing Acinetobacter baumannii K47-42 assessed as reduction in bacterial growth incubated for 48 hrs by microdilution method
- Assay type: functional
Give your result in µg/mL as a bare value.

INSERT INTO assay_data (smi, observed_measurement) VALUES
  ('NCCCCN1C(=O)N(CCCCN)C(=O)C(Cc2ccc(F)c3ccccc23)(Cc2ccc(F)c3ccccc23)C1=O.O=C(O)C(F)(F)F.O=C(O)C(F)(F)F', 32),
  ('N=C(N)NCCCCN1C(=O)N(CCCCNC(=N)N)C(=O)C(Cc2cc(C(F)(F)F)cc(C(F)(F)F)c2)(Cc2cc(C(F)(F)F)cc(C(F)(F)F)c2)C1=O.O=C(O)C(F)(F)F.O=C(O)C(F)(F)F', 16),
  ('NCCCCN1C(=O)N(CCCCN)C(=O)C(Cc2ccc3ccccc3c2)(Cc2ccc3ccccc3c2)C1=O.O=C(O)C(F)(F)F.O=C(O)C(F)(F)F', 32),
  ('N=C(N)NCCCCN1C(=O)N(CCCCNC(=N)N)C(=O)C(Cc2ccc(Br)c(Cl)c2)(Cc2ccc(Br)c(Cl)c2)C1=O.O=C(O)C(F)(F)F.O=C(O)C(F)(F)F', 8),
  ('CC(C)(C)c1cc(CC2(Cc3cc(C(C)(C)C)cc(C(C)(C)C)c3)C(=O)N(CCCCN)C(=O)N(CCCCN)C2=O)cc(C(C)(C)C)c1.O=C(O)C(F)(F)F.O=C(O)C(F)(F)F', 4),
  ('NCCCCN1C(=O)N(CCCCN)C(=O)C(Cc2cc(Br)cc(Br)c2)(Cc2cc(Br)cc(Br)c2)C1=O.O=C(O)C(F)(F)F.O=C(O)C(F)(F)F', 16),
  ('N=C(N)NCCCCN1C(=O)N(CCCCNC(=N)N)C(=O)C(Cc2ccc3ccccc3c2)(Cc2ccc3ccccc3c2)C1=O.O=C(O)C(F)(F)F.O=C(O)C(F)(F)F', 32),
  ('N=C(N)NCCCCN1C(=O)N(CCCCNC(=N)N)C(=O)C(Cc2ccc(F)c3ccccc23)(Cc2ccc(F)c3ccccc23)C1=O.O=C(O)C(F)(F)F.O=C(O)C(F)(F)F', 8);

Next:
Incoming: Fetch value of MIC on Acinetobacter baumannii for "NCCCCN1C(=O)N(CCCCN)C(=O)C(Cc2ccc(Br)c(Cl)c2)(Cc2ccc(Br)c(Cl)c2)C1=O.O=C(O)C(F)(F)F.O=C(O)C(F)(F)F" .
Outgoing: 32
